Measured values drawn from patent US20230108730A1 for this set.

# test: Plasma lactulose after oral lactulose solution in canine NSAID-induced gastric ulceration model (ion chromatography)
# Format: in vivo, dog
# experimental_setup: dog, plasma, po, 60 min after 0.6-0.7 g/kg PO; ulceration Moderate to severe (n = 4)
assay_readout: concentration at 60 min (µM)

>>> print(df.to_string())
                                   molecule            assay_readout  unit_abbrev  observed_result
0  OC[C@H]1O[C@@H](O[C@@H]2[C@@H](CO)OC(O)(CO)[C@H]2O)[C@H](O)[C@@H](O)[C@H]1O (mixture of isomers)  concentration at 60 min           µM              184
